# credit: PubChem BioAssay AID1159580

Assay: chemical genetic growth profiling, strain panel (AID 1159580);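 note: tested at 20 µM; growth read once vehicle control cultures reached saturation at 30 °C; 1 = growth at the plate median or of vehicle wells; lower values mean less growth of the strain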
Conditions: S. cerevisiae deletion strains, growth OD, locus YGL167C, strain pmr1, active compounds read low
In all, about 5,500 compounds went through this assay and about 2,000 (36%) were called active. Not shown: some 18% with an inconclusive outcome. The list shows a part of the results.
Reported normalized growth values are given for each entry in this list.

Compound | normalized growth
OC(Cn1cncn1)(Cn1cncn1)c1ccc(F)cc1F | 1 (inactive)
CC1OC1P(=O)(O)O (centres undefined) | 0.997 (inactive)
CC(C)(C)CC(C)(C)c1ccc(O)c(Cc2ccc(Cl)cc2Cl)c1 | 1.02 (inactive)
CC(=O)N[C@@H](CS)C(=O)O | 0.995 (inactive)
NC(N)=NS(=O)(=O)c1ccc(N)cc1 | 0.987 (inactive)
CO[C@@]1(NC(=O)CSCC#N)C(=O)N2C(C(=O)O)=C(CSc3nnnn3C)CSC21 (some centres undefined) | 0.984 (inactive)
CC(C)NCC(O)c1cc(O)cc(O)c1 (centres undefined) | 0.991 (inactive)
OCCOCCN1CCN(C2=Nc3ccccc3Sc3ccccc32)CC1 | 1 (inactive)
O=C(Cn1ccnc1[N+](=O)[O-])NCCO | 1.02 (inactive)
OCc1ccccc1O | 1.02 (inactive)
Cc1cc(-c2ccccc2)nnc1NCCN1CCOCC1 | 0.991 (inactive)
Cc1cc(NC(=O)C2=C(O)c3ccccc3S(=O)(=O)N2C)no1 | 0.978 (inactive)
CC1(C)O[C@H]2[C@H](O)C[C@](O)(C(N)=O)C[C@H]2O1 | 1.02 (inactive)
COc1cc(-c2coc3cc(OC)c(OC)c(OC)c3c2=O)cc(OC)c1OC | 1 (inactive)
COc1c(OC)c2occc2c2oc(=O)ccc12 | 0.975 (inactive)
O=C1OC(c2ccc(O)cc2)(c2ccc(O)cc2)c2ccccc21 | 0.983 (inactive)
CC(=O)OCC(OC(C)=O)C(OC(C)=O)C(OC(C)=O)C(OC(C)=O)C(COC(C)=O)OC(C)=O (centres undefined) | 0.998 (inactive)
C#CCCCCCCCCCCCC(=O)CC(O)COC(C)=O (centres undefined) | 0.991 (inactive)
CCCC(=O)O[C@]1(C(=O)CO)CCC2[C@@H]3CCC4=CC(=O)CC[C@]4(C)C3[C@@H](O)C[C@@]21C (some centres undefined) | 1.01 (inactive)

###

Experiment: chemical genetic growth profiling, strain panel (AID 1159580);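 note: tested at 20 µM; growth read once vehicle control cultures reached saturation at 30 °C; 1 = growth at the plate median or of vehicle wells; lower values mean less growth of the strain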
Conditions: S. cerevisiae deletion strains, growth OD, locus YJL092W, strain hpr5
About 2,000 (36%) of roughly 5,500 compounds were called active. About 18% were inconclusive and are not listed. No stated cut-off is given here; in the data, active means normalized growth mostly below about 0.91 (no sharp cut-off); inconclusive means no clear call, values can overlap the other calls; inactive means mostly above about 0.92. Some of the results follow.
Possible outcomes: active, inactive

Compound | Class
NS(=O)(=O)c1cc2c(cc1Cl)NC(C(Cl)Cl)NS2(=O)=O (centres undefined) | inactive
CC(=O)OCC(OC(C)=O)C(OC(C)=O)C(OC(C)=O)C(OC(C)=O)C(COC(C)=O)OC(C)=O (centres undefined) | inactive
COc1cc(-c2coc3cc(OC)c(OC)c(OC)c3c2=O)cc(OC)c1OC | inactive
C=C1C(=O)O[C@@H]2C[C@@]3(C)CCC[C@H](C)C3=C[C@H]12 | active
COc1c(OC)c2occc2c2oc(=O)ccc12 | inactive
COc1ccc(-c2coc3cc(OC)cc(OC)c3c2=O)cc1 | inactive
CO/N=C(\C(=O)N[C@@H]1C(=O)N2C(C(=O)O)=C(CSc3nc(=O)c(O)nn3C)CS[C@H]12)c1csc(N)n1 | inactive
O=C(C1CCCCC1)N1CC(=O)N2CCc3ccccc3C2C1 (centres undefined) | inactive
CCNC(=O)CC[C@H](N)C(=O)O | inactive
